- Tested on: G-401 tumor spheroids, viability % test/control
- Measurement Description: Anticancer human tumor G-401 cell line growth inhibition;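 note: spheroids exposed to compound for 7 days; 100% = DMSO vehicle-treated spheroids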
- Measurement Parameters: second compound 30 pM; first compound 1 µM; active compounds read low; spheroids with HUVEC and MSC
Listed molecules paired with reported viability, T/C
Output spec: scalar in %, unitless text.

The following molecules have reported results that may help.
| Molecule | viability, T/C (%) |
| --- | --- |
| COc1ccc([C@@H](O)c2cc(-c3ncnc4cc(N5CCOCC5)ccc34)c(F)cc2Cl)nn1 + COc1cc2c(cc1O)CCNC21CSC2c3c(OC(C)=O)c(C)c4c(c3C(COC1=O)N1C(O)C3Cc5cc(C)c(OC)c(O)c5C(C21)N3C)OCO4 | 50 |
| Cc1cc(C)c(CNC(=O)c2cc(-c3ccc(CN4CCOCC4)cc3)cc3c2cnn3C2CCCC2)c(=O)[nH]1 + COc1cc2c(cc1O)CCNC21CSC2c3c(OC(C)=O)c(C)c4c(c3C(COC1=O)N1C(O)C3Cc5cc(C)c(OC)c(O)c5C(C21)N3C)OCO4 | 119 |
| CC1COCCN1c1cc(-c2ccnn2C)c2ccnc(-c3ccn[nH]3)c2n1 (centres undefined) + COc1cc2c(cc1O)CCNC21CSC2c3c(OC(C)=O)c(C)c4c(c3C(COC1=O)N1C(O)C3Cc5cc(C)c(OC)c(O)c5C(C21)N3C)OCO4 | 12.3 |

Please turn your attention to the following entry.
Reported viability, T/C, molecule [2H]c1nc(C)nc([2H])c1-c1cc(NC[C@@H](C)c2cccc3c(C(=O)NC)ccnc23)ncn1 + COc1cc2c(cc1O)CCNC21CSC2c3c(OC(C)=O)c(C)c4c(c3C(COC1=O)N1C(O)C3Cc5cc(C)c(OC)c(O)c5C(C21)N3C)OCO4 : ____
105
